- TESTED_SYSTEM: mouse muscle nAChR (Mus musculus, UniProt P02716+P04756+P20782)
- Sequence (P04756 21-457): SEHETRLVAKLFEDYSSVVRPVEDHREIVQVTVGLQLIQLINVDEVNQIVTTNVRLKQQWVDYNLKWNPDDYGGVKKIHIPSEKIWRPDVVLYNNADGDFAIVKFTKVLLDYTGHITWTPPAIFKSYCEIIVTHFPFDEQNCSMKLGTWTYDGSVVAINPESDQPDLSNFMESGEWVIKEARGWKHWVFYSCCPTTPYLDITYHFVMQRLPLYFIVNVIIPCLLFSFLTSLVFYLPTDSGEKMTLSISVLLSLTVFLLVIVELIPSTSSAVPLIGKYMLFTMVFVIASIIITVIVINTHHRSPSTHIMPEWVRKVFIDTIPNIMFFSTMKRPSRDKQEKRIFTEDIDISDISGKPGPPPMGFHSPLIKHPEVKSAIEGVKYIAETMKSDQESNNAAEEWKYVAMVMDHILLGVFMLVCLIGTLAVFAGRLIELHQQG
- Sequence (P09690 24-501 partner): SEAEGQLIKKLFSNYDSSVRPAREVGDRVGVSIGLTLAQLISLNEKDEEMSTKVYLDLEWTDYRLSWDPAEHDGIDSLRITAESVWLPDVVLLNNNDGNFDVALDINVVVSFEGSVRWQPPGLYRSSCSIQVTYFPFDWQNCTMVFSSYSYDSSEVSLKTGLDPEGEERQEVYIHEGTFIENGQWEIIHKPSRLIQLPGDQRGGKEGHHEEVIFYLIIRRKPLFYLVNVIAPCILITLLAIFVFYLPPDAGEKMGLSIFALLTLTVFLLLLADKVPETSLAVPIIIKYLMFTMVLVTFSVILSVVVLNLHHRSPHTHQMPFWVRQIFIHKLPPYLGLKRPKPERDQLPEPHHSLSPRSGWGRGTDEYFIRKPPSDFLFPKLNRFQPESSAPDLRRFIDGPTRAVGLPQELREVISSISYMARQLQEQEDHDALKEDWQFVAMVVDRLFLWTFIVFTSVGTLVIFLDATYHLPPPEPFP
- Sequence (P02716 25-520): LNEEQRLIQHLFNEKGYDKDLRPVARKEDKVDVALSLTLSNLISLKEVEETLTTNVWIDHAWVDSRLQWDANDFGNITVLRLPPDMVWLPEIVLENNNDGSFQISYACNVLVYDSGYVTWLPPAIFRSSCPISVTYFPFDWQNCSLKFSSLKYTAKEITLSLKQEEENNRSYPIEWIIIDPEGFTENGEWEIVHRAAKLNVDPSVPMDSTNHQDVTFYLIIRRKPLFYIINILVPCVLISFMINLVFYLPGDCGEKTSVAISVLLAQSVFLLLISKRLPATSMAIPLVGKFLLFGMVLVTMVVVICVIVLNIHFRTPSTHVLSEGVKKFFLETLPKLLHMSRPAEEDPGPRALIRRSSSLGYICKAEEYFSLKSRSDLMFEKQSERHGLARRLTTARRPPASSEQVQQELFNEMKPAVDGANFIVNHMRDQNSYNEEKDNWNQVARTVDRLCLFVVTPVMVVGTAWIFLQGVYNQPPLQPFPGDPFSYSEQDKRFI
- Sequence (P20782 21-493): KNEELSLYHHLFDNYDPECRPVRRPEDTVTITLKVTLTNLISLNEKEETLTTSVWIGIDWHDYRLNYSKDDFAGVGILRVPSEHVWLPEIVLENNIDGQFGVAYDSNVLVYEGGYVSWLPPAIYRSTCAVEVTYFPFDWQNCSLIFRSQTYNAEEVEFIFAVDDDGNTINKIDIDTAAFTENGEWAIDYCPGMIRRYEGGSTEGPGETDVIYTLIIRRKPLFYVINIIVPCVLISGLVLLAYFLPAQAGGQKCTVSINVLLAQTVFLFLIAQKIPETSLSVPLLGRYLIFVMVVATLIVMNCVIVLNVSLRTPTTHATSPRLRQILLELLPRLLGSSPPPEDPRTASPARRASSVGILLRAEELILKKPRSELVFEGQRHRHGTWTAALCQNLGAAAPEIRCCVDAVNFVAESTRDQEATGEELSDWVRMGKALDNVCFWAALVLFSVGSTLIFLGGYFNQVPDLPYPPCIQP
- MEASUREMENT_DESCRIPTION: Two-electrode electrophysiology, ACh-evoked current in Xenopus oocytes
PROPERTY: IC50 (µM)
Reply numerically in µM, unit not repeated.

Query: Report IC50 for "CCCCC/C=C\C/C=C\C/C=C\C/C=C\CCCC(=O)OCC[N+](C)(C)C" please.
Response: 3.16

* * *

Here's what we have: IC50 numbers for human erythrocyte AChE (Homo sapiens, UniProt P22303).

Query: Provide value of IC50 for this record tested with human erythrocyte AChE (Homo sapiens, UniProt P22303): "CCCCC/C=C\C/C=C\C/C=C\C/C=C\CCCC(=O)OCC[N+](C)(C)C"
Sequence (P22303 32-617 isoform P22303-2 limits assumed): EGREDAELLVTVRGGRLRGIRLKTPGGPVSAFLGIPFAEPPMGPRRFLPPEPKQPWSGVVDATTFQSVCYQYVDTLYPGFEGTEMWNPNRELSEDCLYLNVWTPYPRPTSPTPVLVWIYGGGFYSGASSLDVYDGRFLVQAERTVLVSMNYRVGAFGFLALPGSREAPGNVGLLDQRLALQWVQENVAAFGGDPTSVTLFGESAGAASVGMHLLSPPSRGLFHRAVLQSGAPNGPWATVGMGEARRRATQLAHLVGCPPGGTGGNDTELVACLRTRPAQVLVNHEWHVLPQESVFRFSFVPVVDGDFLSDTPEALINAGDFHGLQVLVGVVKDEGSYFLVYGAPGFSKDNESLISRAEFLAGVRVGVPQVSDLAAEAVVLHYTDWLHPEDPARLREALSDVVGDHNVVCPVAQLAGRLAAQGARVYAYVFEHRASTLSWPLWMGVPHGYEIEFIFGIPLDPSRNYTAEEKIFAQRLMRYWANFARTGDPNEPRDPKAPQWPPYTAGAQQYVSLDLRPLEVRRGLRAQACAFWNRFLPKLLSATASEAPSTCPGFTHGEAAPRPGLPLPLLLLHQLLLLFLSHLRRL
Response: 90 µM

Query: Form entry - test system: human erythrocyte AChE (Homo sapiens, UniProt P22303); read-out: IC50; compound: "CCCCC/C=C\C/C=C\CCCCCCCC(=O)OCC[N+](C)(C)C"
Response: > 300 µM

Query: API: value(readout= IC50, system= human erythrocyte AChE (Homo sapiens, UniProt P22303), query= "CC/C=C\C/C=C\C/C=C\C/C=C\C/C=C\C/C=C\CCC(=O)OCC[N+](C)(C)C" )
Response: > 300 µM
